B1: Pituitary-specific positive transcription factor 1, residues 130 to 198; numbered along this chain, P28069 (parent)
chain: RELEKFANEFKVRRIKLGYTQTNVGEALAAVHGSEFSQTTICRFENLQLSFKNACKLKAILSKWLEEAE

- Variants of: B1
- assayInfo: abundance fitness (aPCA) (normalised: wild type 0, dead -1); higher = more abundant; growth selection in yeast, the domain comes from the species named
- assayConditions: Homo sapiens
Mark 0.0 for abundance fitness values under -0.2, and 1.0 for everything at or above.

Some solved entries appear below for comparison.
[[record]]
sequencetext = "RELEKFANEFKVRRIKLGYTQTNVGNALAAVHGSEFSQTTICRFENLQLSFKNACKLKAILSKWLEEAE [E26N]"
answerlabel = 1.0

[[record]]
sequencetext = "RELEKFAKEFKVRRIKLGYTQTNVGEALAAVHGSEFSQTTICRFENLQLSFKNACKLKAILSKWLEEAE [N8K]"
answerlabel = 1.0

[[record]]
sequencetext = "RELEKFANEFKVRRIKLGYTQTNVGEALAAVHGSEFSQTTICRFENLQLSFKNACKHKAILSKWLEEAE [L57H]"
answerlabel = 0.0

[[record]]
sequencetext = "RELEKFANEFKVRRIKLGYTQTNVGEALAAVHGSEFSQTTICRFENLQLSFKNACKLKAILSKWLEEAS [E69S]"
answerlabel = 0.0

[[record]]
sequencetext = "RELEKFANEFKVRRIKLGYTQTNVGEALAAVHGSECSQTTICRFENLQLSFKNACKLKAILSKWLEEAE [F36C]"
answerlabel = 0.0


# bool: abundance fitness of RELEKFANEFKVRRIKLGYTQTNVGEALAAVHGSEFSQTTICRFENLQLSFPNACKLKAILSKWLEEAE [K52P] >= -0.2
1.0

Consider next the variant RELEKFANEFMVRRIKLGYTQTNVGEALAAVHGSEFSQTTICRFENLQLSFKNACKLKAILSKWLEEAE [K11M] in the same way.
0.0

Consider next the variant RELEKFANEFKVRRIKLGYTQTNVGEALAAVHGSEFSQTTICRFENLQLSFKMACKLKAILSKWLEEAE [N53M] in the same way.
1.0

Consider next the variant RELEKFANEFKVRRIKLGYTQTNVGEALAAVHGSEFSQTTICRFEMLQLSFKNACKLKAILSKWLEEAE [N46M] in the same way.
0.0

Consider next the variant RELEKFALEFKVRRIKLGYTQTNVGEALAAVHGSEFSQTTICRFENLQLSFKNACKLKAILSKWLEEAE [N8L] in the same way.
1.0
